Test system: Mycobacterium tuberculosis
Assay: Cornell M. t heat shock assay; further: in the data most compounds retested in dose-response had high values
Type: functional, organism-based
Design: dose or concentration left out as unconfirmed
The whole screen tested about 69,000 compounds, of which about 950 (1.4%) showed an effect of 50% or more. Only a selection was taken, and strong results are over-represented in it overall.
Value Type: Percent Effect
Could you kindly put the unit after your number?

- Molecule: "c1ccc(OCc2nc(CNCCn3cccn3)cs2)cc1"
  System Name: "Mycobacterium tuberculosis"
  Percent Effect: "46.73%"
- Molecule: "CC(C)Cc1cc(C(=O)NCC(O)CN2CCCCCC2)on1 (stereo not given)"
  System Name: "Mycobacterium tuberculosis"
  Percent Effect: "-12.74%"
- Molecule: "CCCc1cc(NCCN2CCNC2=O)n2nccc2n1"
  System Name: "Mycobacterium tuberculosis"
  Percent Effect: "-6.778%"
- Molecule: "Cc1nc(COc2ccc(CNCCn3cccn3)cc2)cs1"
  System Name: "Mycobacterium tuberculosis"
  Percent Effect: "-21.22%"
- Molecule: "Cn1ncc2c(=O)[nH]c(CN3CCCC3c3cccs3)nc21 (stereo not given)"
  System Name: "Mycobacterium tuberculosis"
  Percent Effect: "80.29%"

Ask: Report Percent Effect from Mycobacterium tuberculosis testing of Cc1ccc(OCc2nc(CNCCn3cccn3)cs2)cc1
Reply: 94.11%

Ask: Report Percent Effect from Mycobacterium tuberculosis testing of Cc1cc(N2CCN(Cc3cn(C)nc3C)CC2)cc(C2CCCN2)n1.Cl (stereo not given)
Reply: -11.47%

Ask: Report Percent Effect from Mycobacterium tuberculosis testing of CCCc1noc(CN2CCCC2c2ccsc2)n1 (stereo not given)
Reply: 4.131%

* * *

Tested on: Mycobacterium tuberculosis
Assay: Cornell M. t heat shock assay; further: in the data most compounds retested in dose-response had high values
Assay type: functional, organism-based
Set-up: dose or concentration left out as unconfirmed
The whole screen tested about 69,000 compounds, of which about 950 (1.4%) showed an effect of 50% or more. The entries come from a sample that favours strong results as a whole.
Value Type: Percent Effect (%)
Enter your answer as a number in %; do not include the unit.

Consider the following illustrative entries.
- Structure Smiles: "CN(Cc1cc2n(n1)CCNC2)Cc1n[nH]c2c1CCC2"
  Result Units: "%"
  Percent Effect: -1.948
- Structure Smiles: "COCCn1ccc2ccc(C(=O)N3CCN(C(C)=O)CC3)cc21"
  Result Units: "%"
  Percent Effect: 4.647
- Structure Smiles: "COCCn1ccc2ccc(C(=O)O)cc21"
  Result Units: "%"
  Percent Effect: -0.8971
- Structure Smiles: "CCc1cc(N(C)Cc2[nH]nc3c2CCC3)nc(N2CCOCC2)n1"
  Result Units: "%"
  Percent Effect: -16.74

Ask: Annotate the molecule O=C(O)C(F)(F)F.c1csc(CN2CCn3c(Cn4cncn4)cnc3C2)n1 with its measured Percent Effect.
Reply: -82.66

* * *

Catalogue of compounds with associated Percent Effect
Tested on: Mycobacterium tuberculosis
Assay: Cornell M. t heat shock assay; further: in the data most compounds retested in dose-response had high values
Assay type: functional, organism-based
Design: dose or concentration left out as unconfirmed
The whole screen tested about 69,000 compounds, of which about 950 (1.4%) showed an effect of 50% or more. Only a selection was taken, and strong results are over-represented in it overall.
Enter your answer as a number in %; do not include the unit.

Ask: Annotate the compound CN(C)CCN1CCCC12CCN(C(=O)c1ccncc1)CC2.O=C(O)C(F)(F)F.O=C(O)C(F)(F)F with its measured Percent Effect.
Reply: 6.106

Ask: Annotate the compound CC(C)CCN1C[C@H]2C[C@H](C(=O)NCC(C)C)[C@@H](C1)O2.O=C(O)C(F)(F)F with its measured Percent Effect.
Reply: 22.63

Ask: Annotate the compound CCN(CC)Cc1ccc(C(=O)N2CCN(CC(C)O)CC2)cc1 (stereo not drawn) with its measured Percent Effect.
Reply: 9.654
